- Tested on: M. abscesses (ATCC 19977)
- Test Protocol: MIC against mycobacterium in Middlebrook 7H9 broth
- Assay type: cell-based, M. abscessus
Observation Type: MIC M. abscesses (µg/mL)
Reply numerically in µg/mL, unit not repeated.

Exam item: Name the reported MIC M. abscesses value associated with the compound COc1cc(/C=C/c2ccc(OCCCC[P+](c3ccccc3)(c3ccccc3)c3ccccc3)c(OC)c2)ccc1OCCCC[P+](c1ccccc1)(c1ccccc1)c1ccccc1.[I-].[I-] [DM4P]
Marked response: 8

Exam item: Which MIC M. abscesses reading was recorded for the compound COc1cc(/C=C/c2ccc(OCCCCCCCC[P+](c3ccccc3)(c3ccccc3)c3ccccc3)c(OC)c2)ccc1OCCCCCCCC[P+](c1ccccc1)(c1ccccc1)c1ccccc1.[I-].[I-] [DM8P] ?
Marked response: 64

Exam item: Consider the compound shown here: C(=C\c1ccc(OCCCC[P+](c2ccccc2)(c2ccccc2)c2ccccc2)cc1)/c1ccc(OCCCC[P+](c2ccccc2)(c2ccccc2)c2ccccc2)cc1.[I-].[I-] [Compound D4P] What is its recorded MIC M. abscesses?
Marked response: 32

Exam item: Please give the measured MIC M. abscesses for this compound: C(=C\c1ccc(OCCCCCC[P+](c2ccccc2)(c2ccccc2)c2ccccc2)cc1)/c1ccc(OCCCCCC[P+](c2ccccc2)(c2ccccc2)c2ccccc2)cc1.[I-].[I-] [Compound D6P]
Marked response: 16

Exam item: If you can, please state the reported MIC M. abscesses value of COc1cc(/C=C/c2ccc(OCCCCCC[P+](c3ccccc3)(c3ccccc3)c3ccccc3)c(OC)c2)ccc1OCCCCCC[P+](c1ccccc1)(c1ccccc1)c1ccccc1.[I-].[I-] [DM6P] .
Marked response: 8

----------
- Test system: Methicillin-resistant S. aureus (ATCC BAA1717)
- Test Protocol: MIC, broth microdilution in CA-MHB
- Type: cell-based
- Test Settings: towards MRSA, Table 3
Please provide measured MIC for the entries that follow.
Quick note: give the figure in µg/mL, leave out the unit.

Exam item: Using the record for C(=C\c1ccc(OCCCC[P+](c2ccccc2)(c2ccccc2)c2ccccc2)cc1)/c1ccc(OCCCC[P+](c2ccccc2)(c2ccccc2)c2ccccc2)cc1.[I-].[I-] , report its MIC.
Marked response: 2

Exam item: Given the entry C(=C\c1ccc(OCCCCCC[P+](c2ccccc2)(c2ccccc2)c2ccccc2)cc1)/c1ccc(OCCCCCC[P+](c2ccccc2)(c2ccccc2)c2ccccc2)cc1.[I-].[I-] , report its measured MIC.
Marked response: 2

Exam item: Fill in the blank: the reported MIC of COc1cc(/C=C/c2ccc(OCCCCCC[P+](c3ccccc3)(c3ccccc3)c3ccccc3)c(OC)c2)ccc1OCCCCCC[P+](c1ccccc1)(c1ccccc1)c1ccccc1.[I-].[I-] is ____.
Marked response: 1

Exam item: Please report the recorded MIC for COc1cc(/C=C/c2ccc(OCCCCCCCC[P+](c3ccccc3)(c3ccccc3)c3ccccc3)c(OC)c2)ccc1OCCCCCCCC[P+](c1ccccc1)(c1ccccc1)c1ccccc1.[I-].[I-] .
Marked response: 4

Exam item: Field request: MIC | item: C[N+](C)(C)CCCCCCOc1ccc(/C=C/c2ccc(OCCCCCC[N+](C)(C)C)cc2)cc1.[I-].[I-] [Compound D6, reference compound]
Marked response: 32

Exam item: What measured MIC goes with COc1cc(/C=C/c2ccc(OCCCC[P+](c3ccccc3)(c3ccccc3)c3ccccc3)c(OC)c2)ccc1OCCCC[P+](c1ccccc1)(c1ccccc1)c1ccccc1.[I-].[I-] ?
Marked response: 2

Exam item: Entry C[N+](C)(C)CCCCCCCCOc1ccc(/C=C/c2ccc(OCCCCCCCC[N+](C)(C)C)cc2)cc1.[I-].[I-] [Compound D8, reference compound] : reported MIC = ?
Marked response: 8

----------
- Test system: S. aureus (ATCC 29213)
- Test Protocol: MIC, broth microdilution in CA-MHB
- Assay type: cell-based
Would you mind telling me the reported MIC SA of each entry?
Dear colleague, please return just the value in µg/mL, with no unit written.

Exam item: Query: MIC SA; subject: C[N+](C)(C)CCCCCCOc1ccc(/C=C/c2ccc(OCCCCCC[N+](C)(C)C)cc2)cc1.[I-].[I-] [Compound D6, reference compound]
Marked response: 32

Exam item: I'd like to know its MIC SA. The compound in question is C[N+](C)(C)CCCCCCCCOc1ccc(/C=C/c2ccc(OCCCCCCCC[N+](C)(C)C)cc2)cc1.[I-].[I-] [Compound D8, reference compound]
Marked response: 8

Exam item: // returns reported MIC SA for input COc1cc(/C=C/c2ccc(OCCCC[P+](c3ccccc3)(c3ccccc3)c3ccccc3)c(OC)c2)ccc1OCCCC[P+](c1ccccc1)(c1ccccc1)c1ccccc1.[I-].[I-]
Marked response: 2

----------
- Tested on: S. aureus (ATCC 29213)
- Test Protocol: MIC, broth microdilution in CA-MHB
- Format: cell-based
Please respond with reported MIC SA for every item in the list.
Write the number in µg/mL without appending the unit.

Exam item: Item C(=C\c1ccc(OCCCCCC[P+](c2ccccc2)(c2ccccc2)c2ccccc2)cc1)/c1ccc(OCCCCCC[P+](c2ccccc2)(c2ccccc2)c2ccccc2)cc1.[I-].[I-] has what recorded MIC SA?
Marked response: 2

Exam item: For COc1cc(/C=C/c2ccc(OCCCCCC[P+](c3ccccc3)(c3ccccc3)c3ccccc3)c(OC)c2)ccc1OCCCCCC[P+](c1ccccc1)(c1ccccc1)c1ccccc1.[I-].[I-] , what is its reported MIC SA?
Marked response: 1

Exam item: Could you share which MIC SA value was measured for C(=C\c1ccc(OCCCC[P+](c2ccccc2)(c2ccccc2)c2ccccc2)cc1)/c1ccc(OCCCC[P+](c2ccccc2)(c2ccccc2)c2ccccc2)cc1.[I-].[I-] ?
Marked response: 4

----------
- Test system: A549 (lung epithelial cells)
- Test Protocol: Cytotoxicity against mammalian cell line
- Assay type: cell-based
Binary label based on IC50 with cut-off 10 µg/mL: below gives condition met, not below gives condition not met.

Exam item: In plain terms, does C(=C\c1ccc(OCCCC[P+](c2ccccc2)(c2ccccc2)c2ccccc2)cc1)/c1ccc(OCCCC[P+](c2ccccc2)(c2ccccc2)c2ccccc2)cc1.[I-].[I-] come in under 10 µg/mL for IC50?
Marked response: condition met

Exam item: Criterion: IC50 strictly below 10 µg/mL. Is it met by COc1cc(/C=C/c2ccc(OCCCC[P+](c3ccccc3)(c3ccccc3)c3ccccc3)c(OC)c2)ccc1OCCCC[P+](c1ccccc1)(c1ccccc1)c1ccccc1.[I-].[I-] ?
Marked response: condition met

Exam item: Just wondering, is IC50 of C[N+](C)(C)CCCCCCOc1ccc(/C=C/c2ccc(OCCCCCC[N+](C)(C)C)cc2)cc1.[I-].[I-] [Compound D6, reference compound] below 10 µg/mL?
Marked response: condition not met

Exam item: Below 10 µg/mL on IC50? Entry COc1cc(/C=C/c2ccc(OCCCCCC[P+](c3ccccc3)(c3ccccc3)c3ccccc3)c(OC)c2)ccc1OCCCCCC[P+](c1ccccc1)(c1ccccc1)c1ccccc1.[I-].[I-]
Marked response: condition not met

Exam item: State whether 10 µg/mL exceeds IC50 recorded for C(=C\c1ccc(OCCCCCC[P+](c2ccccc2)(c2ccccc2)c2ccccc2)cc1)/c1ccc(OCCCCCC[P+](c2ccccc2)(c2ccccc2)c2ccccc2)cc1.[I-].[I-] .
Marked response: condition not met

Exam item: Does the reported IC50 of C[N+](C)(C)CCCCOc1ccc(/C=C/c2ccc(OCCCC[N+](C)(C)C)cc2)cc1.[I-].[I-] [Compound D4, reference compound] stay below 10 µg/mL?
Marked response: condition not met

Exam item: # TODO verify IC50 < 10 µg/mL strictly for this compound: C[N+](C)(C)CCCCCCCCOc1ccc(/C=C/c2ccc(OCCCCCCCC[N+](C)(C)C)cc2)cc1.[I-].[I-] [Compound D8, reference compound]
Marked response: condition not met

Exam item: Take the compound COc1cc(/C=C/c2ccc(OCCCCCC[P+](CCCO)(CCCO)CCCO)c(OC)c2)ccc1OCCCCCC[P+](CCCO)(CCCO)CCCO.[I-].[I-] and say whether its IC50 is less than 10 µg/mL.
Marked response: condition not met

----------
- Test Settings: phosphate-buffered saline; below 10 μg mL^−1 estimated by turbidimetric screening
Quick rule: solubility in PBS of at least 80 µg/mL means MET, below that means NOT MET.

Exam item: State whether the measured solubility in PBS reaches 80 µg/mL, counting equality as reaching it, for COc1cc(/C=C/c2ccc(OCCCCCCCC[P+](c3ccccc3)(c3ccccc3)c3ccccc3)c(OC)c2)ccc1OCCCCCCCC[P+](c1ccccc1)(c1ccccc1)c1ccccc1.[I-].[I-] [DM8P]
Marked response: NOT MET

Exam item: Decide: is the reported value of solubility in PBS for COc1cc(/C=C/c2ccc(OCCCC[P+](c3ccccc3)(c3ccccc3)c3ccccc3)c(OC)c2)ccc1OCCCC[P+](c1ccccc1)(c1ccccc1)c1ccccc1.[I-].[I-] [DM4P] equal to or greater than 80 µg/mL?
Marked response: MET

Exam item: Please indicate if the recorded solubility in PBS for C(=C\c1ccc(OCCCCCC[P+](c2ccccc2)(c2ccccc2)c2ccccc2)cc1)/c1ccc(OCCCCCC[P+](c2ccccc2)(c2ccccc2)c2ccccc2)cc1.[I-].[I-] [Compound D6P] meets or exceeds 80 µg/mL.
Marked response: NOT MET

Exam item: Quick check: does COc1cc(/C=C/c2ccc(OCCCCCC[P+](c3ccccc3)(c3ccccc3)c3ccccc3)c(OC)c2)ccc1OCCCCCC[P+](c1ccccc1)(c1ccccc1)c1ccccc1.[I-].[I-] [DM6P] have solubility in PBS greater than or equal to 80 µg/mL?
Marked response: MET

Exam item: Check the entry C(=C\c1ccc(OCCCCCCCC[P+](c2ccccc2)(c2ccccc2)c2ccccc2)cc1)/c1ccc(OCCCCCCCC[P+](c2ccccc2)(c2ccccc2)c2ccccc2)cc1.[I-].[I-] [Compound D8P] : does solubility in PBS equal or exceed 80 µg/mL?
Marked response: NOT MET

Exam item: Would you say C(=C\c1ccc(OCCCC[P+](c2ccccc2)(c2ccccc2)c2ccccc2)cc1)/c1ccc(OCCCC[P+](c2ccccc2)(c2ccccc2)c2ccccc2)cc1.[I-].[I-] [Compound D4P] shows solubility in PBS at minimum 80 µg/mL?
Marked response: NOT MET
